Consider the following molecules and their measured IC50 readings.
tested on: Vero; test: Cytotoxicity against african green monkey Vero cells after 72 hrs by MTT assay; format: cell-based; details: Chlorocebus sabaeus

Below are worked cases with known answers.
[[record]]
substancesmiles = "Cc1c(C(=O)NCCc2ccccc2)[n+]([O-])c2cc(C(F)(F)F)ccc2[n+]1[O-]"
measuredtarget = "Vero"
testresult = "> 30 µg/mL"

[[record]]
substancesmiles = "Cc1c(C(=O)NCCc2ccccc2)[n+]([O-])c2cc(F)c(F)cc2[n+]1[O-]"
measuredtarget = "Vero"
testresult = "> 30 µg/mL"

[[record]]
substancesmiles = "Cc1c(C(=O)NCCc2ccccc2)[n+]([O-])c2cc(F)ccc2[n+]1[O-]"
measuredtarget = "Vero"
testresult = "> 100 µg/mL"

[[record]]
substancesmiles = "COc1ccc(CCNC(=O)c2c(C)[n+]([O-])c3ccc(C)cc3[n+]2[O-])cc1"
measuredtarget = "Vero"
testresult = "> 30 µg/mL"


stdin: For COc1ccc(CNC(=O)c2c(C)[n+]([O-])c3ccc(C)cc3[n+]2[O-])cc1 , write its IC50.
stdout: > 30 µg/mL

stdin: Assign IC50 to the following record: Cc1c(C(=O)NCc2ccccc2)[n+]([O-])c2cc(Cl)c(Cl)cc2[n+]1[O-]
stdout: > 100 µg/mL

stdin: Quick one: give measured IC50 for Cc1c(C(=O)NCCc2ccccc2)[n+]([O-])c2cc(Cl)c(Cl)cc2[n+]1[O-]
stdout: > 30 µg/mL

stdin: Identify the reported IC50 for the following entry. COc1ccc(CCNC(=O)c2c(C)[n+]([O-])c3cc(F)c(F)cc3[n+]2[O-])cc1
stdout: > 30 µg/mL

stdin: Respond only with IC50 recorded for Cc1ccc2c(c1)[n+]([O-])c(C(=O)NCCc1ccccc1)c(C)[n+]2[O-]
stdout: > 100 µg/mL
